Biological target: PARP-1 F1+F2 (24-kDa DBD) (Homo sapiens, UniProt P09874 1-214)
Sequence (P09874 1-214): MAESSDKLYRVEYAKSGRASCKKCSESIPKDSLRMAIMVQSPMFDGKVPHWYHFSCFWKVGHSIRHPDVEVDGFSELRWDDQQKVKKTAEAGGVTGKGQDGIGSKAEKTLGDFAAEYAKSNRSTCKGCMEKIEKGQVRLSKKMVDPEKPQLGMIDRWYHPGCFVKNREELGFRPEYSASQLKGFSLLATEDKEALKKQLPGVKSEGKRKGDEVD
Test: fluorescence anisotropy; 200; 50 mM Tris-HCl pH 7.0, 150 uM ZnSO4, 4 mM DTT, 25 C; NaCl 0-200 mM (T2, as in cof; 10 nM DNA) or 25 mM (T3 mutants; 25 nM DNA)
Settings: protein: recombinant; label: fluorescein-dT at T8; single-chain dumbbell, 18 bp with central nick, two tetraloops
measuredAttribute: pKd
Please keep in mind that pKd is minus log10 of the molar concentration; only the number is needed.

Lab note: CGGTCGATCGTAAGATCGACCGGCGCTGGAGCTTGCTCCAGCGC (structured_DNA, 5'-phosphate) [44-nt nicked dumbbell, 5'-phosphate, fluorescein-dT] gave pKd of 7.34
